Taken from ChEMBL document CHEMBL4184178.

test.summary: Plasma concentration in rat at 60 mg/kg, ip measured after 0.5 hrs by LC-MS analysis
Type: ADME, organism-based
measurement.name: concentration at 0.5 h (µM)
One number for each entry, in µM.

# input Look at this molecule and give its reported concentration at 0.5 h. CCN1CCc2ccc(-n3cc(C(=O)N4CCC(F)CC4)c4cc(OC)c(OC)cc4c3=O)cc21
# output 9.06

----------
test.summary: Brain to plasma partition coefficient, Kp of the compound in rat at 60 mg/kg, ip measured after 0.5 hrs by LC-MS analysis
Type: ADME, organism-based
measurement.name: Kp at 0.5 h
Answers are plain numbers.

# input Look at this compound and give its reported Kp at 0.5 h. CCN1CCc2ccc(-n3cc(C(=O)N4CCC(F)CC4)c4cc(OC)c(OC)cc4c3=O)cc21
# output 0.13
